tgt: T1, His-tagged CD47 recombinant protein, CD47-His (human, UniProt Q08722 19-141, limits assumed)
T1 construct: it is not restated for CD47-His; also called human CD47-His protein; antigen CD47-His; not shown: His tag
measurementProtocol: ELISA on coated CD47-His; Ab 13.333 nM

| binder | OD450 nm |
| --- | --- |
| 4D10B11 (antibody, V domains shown, Murine hybridoma antibody purified on protein G) VH: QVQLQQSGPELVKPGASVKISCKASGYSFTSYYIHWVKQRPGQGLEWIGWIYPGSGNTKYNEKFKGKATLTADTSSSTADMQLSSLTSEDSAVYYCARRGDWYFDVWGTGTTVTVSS VL: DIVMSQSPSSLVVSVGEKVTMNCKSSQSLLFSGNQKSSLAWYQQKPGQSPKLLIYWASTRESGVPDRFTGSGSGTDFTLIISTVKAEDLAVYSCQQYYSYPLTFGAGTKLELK | 2.91 |
| 25E3B5 (antibody, V domains shown, Murine hybridoma antibody purified on protein G) VH: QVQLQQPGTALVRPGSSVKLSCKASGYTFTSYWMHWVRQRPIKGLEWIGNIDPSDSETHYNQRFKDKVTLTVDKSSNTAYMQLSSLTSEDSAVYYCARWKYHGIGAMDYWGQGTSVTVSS VL: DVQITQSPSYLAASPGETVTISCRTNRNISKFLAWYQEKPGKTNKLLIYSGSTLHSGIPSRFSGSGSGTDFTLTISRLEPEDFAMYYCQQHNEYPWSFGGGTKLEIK | 2.96 |
